# Tested system: CB1 receptors (Mus musculus)
# Experiment description: [35S]GTPγS binding
# Condition description: pEC50, [35S]GTPγS binding, mouse brain membranes, N=3
Property measured: EC50 (nM)
Could you give me the number in nM? Just the number is fine.

Qu. Look up EC50: O=C(NC12CC3CC(CC(C3)C1)C2)c1nn(CCCCCF)c2ccccc12
Ans. 6.24

* * *

# Tested system: CB1 receptors (Mus musculus, UniProt P47746)
# Sequence (P47746 whole entry): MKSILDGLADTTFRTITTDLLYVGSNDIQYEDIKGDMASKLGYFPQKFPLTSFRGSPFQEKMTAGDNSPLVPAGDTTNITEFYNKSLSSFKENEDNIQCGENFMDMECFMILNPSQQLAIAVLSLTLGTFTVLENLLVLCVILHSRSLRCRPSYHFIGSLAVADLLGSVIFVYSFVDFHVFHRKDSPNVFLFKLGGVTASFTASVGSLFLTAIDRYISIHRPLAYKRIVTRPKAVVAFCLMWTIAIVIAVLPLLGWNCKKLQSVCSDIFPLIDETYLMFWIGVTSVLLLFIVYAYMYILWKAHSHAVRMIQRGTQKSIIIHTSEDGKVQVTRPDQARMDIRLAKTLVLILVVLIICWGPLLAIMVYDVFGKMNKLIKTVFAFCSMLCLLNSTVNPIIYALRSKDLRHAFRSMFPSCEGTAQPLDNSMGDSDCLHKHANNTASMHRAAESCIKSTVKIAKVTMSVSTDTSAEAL
# Experiment description: [35S]GTPγS binding
# Condition description: potency (EC50), [35S]GTPγS binding, mouse brain membranes 25 μg, N=3
Property measured: EC50 (nM)
Could you give me the number in nM? Just the number is fine.

Qu. Look up EC50: O=C(NC12CC3CC(CC(C3)C1)C2)c1nn(CCCCCF)c2ccccc12 [5F-AKB48]
Ans. 7.7

Hey, just so you know, these numbers are from paper PMC7415729.
